The values you see were collected from PubChem BioAssay (NCI).

# Test system: SK-MEL-28 melanoma
# protocol_summary: NCI-60 one-dose screen, 48 h (100 = growth as untreated, 0 = no growth, -100 = all killed)
# measurement_parameters: 10 µM unless noted
Compounds without any hit were thinned out: in the full panel of roughly 83,000, 20% have a hit.
parameter: growth (%)
Answer in %, number only, no unit symbol.

Request: Which growth reading was recorded for the compound COc1c(B(O)O)cc(F)cc1-c1nc2c(F)cc3[nH]ncc3c2c2c1CCCC2 ?
Result: 25.7

Request: One more compound: OC1CCC(Cn2c(C(F)(F)F)cc3c(Cl)ncnc32)CC1 (centres undefined)
Result: 20.2

Request: One more compound: Cc1cc(C(NC(=O)C2CC3(CC(Nc4cccc5c4C(=O)N(C4CCC(=O)NC4=O)C5=O)C3)C2)c2ccc3c(c2)OC(F)(F)O3)c(O)c2ncccc12 (centres undefined)
Result: 0.772

Request: One more compound: CCOc1ccc2[nH]c(=O)c(C(c3nnnn3CC3CCCO3)N3CCN(Cc4ccccc4)CC3)cc2c1 (centres undefined)
Result: 101

----------
# Tested on: COLO 205 colon
# protocol_summary: NCI-60 one-dose screen, 48 h (100 = growth as untreated, 0 = no growth, -100 = all killed)
# measurement_parameters: 10 µM unless noted
Compounds without any hit were thinned out: in the full panel of roughly 83,000, 20% have a hit.
// thresholds for growth classes: bottom bin (below 10%), middle bin (10% to below 70%), top bin (70% or more)

Request: Could you tell me which band CCCCCCCCc1ccc(C(=O)Nc2ccc(C)c(OP(=O)(O)O)c2)cc1 belongs to?
Result: top bin

Request: One more compound: O=C1/C(=C/c2cnc(-c3ccccc3)s2)SC(=S)N1Cc1ccc2c(c1)OCO2
Result: top bin

Request: One more compound: CC1=C(C(=O)OC(C)C)C(c2ccc(O)cc2)NC(=O)N1 (stereo not given)
Result: top bin

Request: One more compound: CCCN(CCC)S(=O)(=O)c1ccc(C(=O)O)cc1.CCCN(CCC)S(=O)(=O)c1ccc(C(=O)O)cc1.[Cl][Pt+2][Cl].[NH2-].[NH2-]
Result: bottom bin

Request: One more compound: N#Cc1cc(-c2ccc3ncnc(N4CCc5cc(F)c(Cl)cc54)c3c2)cnc1N
Result: middle bin

Request: One more compound: COc1ccc(N=Nc2c(N)nn3c(-c4ccc5c(c4)C=S=C5)ccnc23)cc1
Result: middle bin

Request: One more compound: COc1c(B(O)O)cc(F)cc1-c1nc2ccc3[nH]ncc3c2c2c1COCC2
Result: middle bin

Request: One more compound: Nc1cc(-c2c[nH]c3ccc(F)cc23)nc2cc(-c3c[nH]c4ccccc34)nn12
Result: bottom bin

Request: One more compound: C#CCN(C)CCCOc1ccc(N(C)C(=O)c2cc(C(C)C)c(O)cc2O)cc1Cl
Result: bottom bin

----------
# System: HCT-15 colon
# protocol_summary: NCI-60 one-dose screen, 48 h (100 = growth as untreated, 0 = no growth, -100 = all killed)
# measurement_parameters: 10 µM unless noted
This is part of a sample that, as a whole, favours compounds with a hit. Of some 83,000 tested, about 20% had one in any assay.
Please respond with reported growth for every item in the list.
Answer in %, number only, no unit symbol.

Request: Which growth reading was recorded for the compound CCCCNc1ccc2c3c(cccc13)C(=O)N(NCC(O)COc1ccc3c(C)cc(=O)oc3c1)C2=O (stereo not drawn) ?
Result: 77.3

Request: One more compound: Cc1ccc(Cl)cc1NC(=O)N/C(N)=N/c1nc2ccccc2s1
Result: -22.4

Request: One more compound: COc1ccc2[nH]c(O)c(N=Nc3nc(-c4ccc(Br)cc4)cs3)c2c1
Result: 2.5

Request: One more compound: O=C1N/C(=N\c2nccs2)S/C1=C\c1ccc([N+](=O)[O-])cc1
Result: 16

Request: One more compound: CCCCNc1ccc2c3c(cccc13)C(=O)N(c1cccc(-c3nn(-c4ccccc4)cc3-c3nc4ccccc4s3)c1)C2=O
Result: 108

Request: One more compound: Cc1nc2sccn2c1-c1nnc(SCc2ccccc2)o1
Result: 89.2

Request: One more compound: O=C(Nc1nc2ccc([N+](=O)[O-])cc2s1)Nc1ccc(Cl)cc1Cl
Result: 49.1

Request: One more compound: O=C(Nc1ccc(Br)cc1)Nc1ccc(-c2ccc3c(c2)NC(=O)/C3=C\c2ccc[nH]2)cc1
Result: 42.8
